system: T1, Perilipin epitope 6 peptide EVRVPWLHSLAAAQE (SEQ ID NO. 333) (human, Biotin-PEG Spacer and GGSGGS Linker (SEQ ID NO. 438) at the N-terminus, or Biotin-PEG Spacer and AAAAA Linker (SEQ ID NO. 439) at the C-terminus)
T1 construct: Two biotinylated variants were used for selection and ELISA; On the peptide array it stood without biotin; also called target peptide
T1 peptide: EVRVPWLHSLAAAQE
method-notes: phage display selection and ELISA on biotinylated target peptide
recorded-endpoint: binding result

binder	recorded-endpoint	result
Antibody No. 52 (antibody, V domains shown, human IgG1, lambda or kappa light chain; also called 448-F05) VH: QVQLVQSGAEVKKPGASVKVSCKASGYTFTSYGISWVRQAPGQGLEWMGWISAYNGNTNYAQKLQGRVTMTTDTSTSTAYMELRSLRSDDTAVYYCASWGVVGGMDVWGQGTLVTVSS VL: DIQMTQSPSSVSASVGDRVTITCRASQGISSWLAWYQQKPGKAPKLLIYAASSLQSGVPSRFSGSGSGTDFTLTISSLQPEDFATYYCQQANSFPLTFGGGTKVDIK	binding result	binds
Antibody No. 26 (antibody, V domains shown, human IgG1, lambda or kappa light chain; also called 447-D06) VH: EVQLLESGGGVVQPGRSLRLSCAASGFTFSSYAMHWVRQAPGKGLEWVAVISYDGSNKYYADSVKGRFTISRDNSKNTLYLQMNSLRAEDTAVYYCARELYYGPGGMDVWGQGTLVTVSS VL: QSVLTQPPSVSGAPGQRVTISCTGSSSNIGAGYDVHWYQQLPGTAPKLLIYGNSNRPSGVPDRFSGSKSGTSASLAITGLQAEDEADYYCQSYDSSLSGSVFGGGTKLTVL	binding result	binds
Antibody No. 51 (antibody, V domains shown, human IgG1, lambda or kappa light chain; also called 447-E05) VH: QVQLQESGGGVVQPGRSLRLSCAASGFTFSSYAMHWVRQAPGKGLEWVAVISYDGSNKYYAGSVKGRFTISRDNSKNTLYLQMNSLRAEDTAVYYCARDWRGVYFDYWGQGTLVTVSS VL: QSALTQPASVSGSPGQSITISCTGTSSDVGGYNYVSWYQQHPGKAPKLMIYEVSNRPSGVSNRFSGSKSGNTASLTISGLQAEDEADYYCSSYTSSSTLVFGGGTKLTVL	binding result	binds
